SUBJECT OF TEST: Human immunodeficiency virus type 1 integrase (Human immunodeficiency virus 1, UniProt Q7ZJM1)
Sequence (Q7ZJM1 whole entry): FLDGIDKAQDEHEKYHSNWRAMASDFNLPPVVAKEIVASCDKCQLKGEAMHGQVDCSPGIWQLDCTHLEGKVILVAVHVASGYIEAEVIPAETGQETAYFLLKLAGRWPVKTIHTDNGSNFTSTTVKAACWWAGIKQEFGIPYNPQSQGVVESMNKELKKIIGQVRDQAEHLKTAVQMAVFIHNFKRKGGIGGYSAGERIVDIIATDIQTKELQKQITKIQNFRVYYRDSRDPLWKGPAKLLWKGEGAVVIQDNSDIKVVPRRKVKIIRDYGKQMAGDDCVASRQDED
TEST DETAILS: Inhibitory concentration against human immunodeficiency virus type 1 integrase
PROPERTY MEASURED: IC50
State the result as a value with its unit after it.

[
  {
    "STRUCTURE AS SMILES": "O=S1(=O)CCCCN1c1nc(/C(O)=N/Cc2ccc(F)cc2)c(O)c2ncccc12",
    "IC50": "10 nM"
  }
]

Query: Quick check: IC50 of CC(C)Oc1ccc(Cc2ccccc2)cc1/C(O)=C/C(=O)C(=O)O ?
Response: 50 nM

----------
SUBJECT OF TEST: UniProtKB Q7ZJM1
TEST DETAILS: Log of inhibitory concentration against human immunodeficiency virus type 1 integrase
pIC50: −log10 of the molar value.
Could you label it met if measured pIC50 is 6 or higher, and not met otherwise?

Some entries whose results are on file:
[
  {
    "STRUCTURE AS SMILES": "CN1C(=O)c2c(c(O)c3nccnc3c2O)C1=O",
    "CLASSIFICATION": "not met"
  },
  {
    "STRUCTURE AS SMILES": "COc1ccc(CN2C(=O)c3c(c(O)c4nccnc4c3O)C2=O)cc1",
    "CLASSIFICATION": "met"
  },
  {
    "STRUCTURE AS SMILES": "O=C1c2c(c(O)c3nccnc3c2O)C(=O)N1Cc1cccc(Br)c1",
    "CLASSIFICATION": "met"
  },
  {
    "STRUCTURE AS SMILES": "O=C(c1ccccc1)N1CCC(N2C(=O)c3c(c(O)c4nccnc4c3O)C2=O)CC1",
    "CLASSIFICATION": "not met"
  },
  {
    "STRUCTURE AS SMILES": "O=C1c2c(c(O)c3nccnc3c2O)C(=O)N1Cc1cccc(F)c1",
    "CLASSIFICATION": "met"
  }
]

Query: Say whether O=C1c2c(c(O)c3nccnc3c2O)C(=O)N1Cc1ccc(Cl)c(Cl)c1 shows pIC50 of 6 or more.
Response: met

Query: Say whether O=C1c2c(c(O)c3nccnc3c2O)C(=O)N1Cc1ccc(OC(F)(F)F)cc1 shows pIC50 of 6 or more.
Response: not met

Query: Say whether O=C1c2c(c(O)c3nccnc3c2O)C(=O)N1Cc1ccccc1Br shows pIC50 of 6 or more.
Response: met

Query: Say whether Cc1ccc2c(O)c3c(c(O)c2n1)C(=O)N(Cc1cccc(Br)c1)C3=O shows pIC50 of 6 or more.
Response: met

The measured values listed here are drawn from ChEMBL document CHEMBL1142728.
